B1: Nuclear receptor subfamily 1 group D member 2, residues 103 to 171; numbered along this chain, Q14995 (parent)
chain: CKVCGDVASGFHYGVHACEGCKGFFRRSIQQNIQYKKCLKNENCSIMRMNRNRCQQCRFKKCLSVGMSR

# Variants of: B1
# experimental protocol: abundance fitness (aPCA) (normalised: wild type 0, dead -1); higher = more abundant; growth selection in yeast, the domain comes from the species named
# run conditions: Homo sapiens
measure name: abundance fitness

// below: answered variants
- CKVCGDVASGFHYGVHACEGCKGFFRRSIQQNIQYKKCLKNENCAIMRMNRNRCQQCRFKKCLSVGMSR: -0.424
- CKVCGDVASGFHYGVHACEGCKGFFRRSIQQNIQYKKCLKNENCSHMRMNRNRCQQCRFKKCLSVGMSR: -0.162
- CKVCGDVASGFHYGVHACEGCKGFFRRSIQQNIQYKKCLKNENCSIMRMNRNRCQQCRFKKCLDVGMSR: -0.051

Now for a further variant.
Documented abundance fitness of `CKVCGDVASGFHYGVHACEGCKGFFRRSIQQNIQYKKCLKNENCSIMRMNRNRCQQCRFKKCLSVGMIR` : -0.111
